Biological target: 5-HT2B (Homo sapiens, UniProt P41595)
Sequence (P41595 whole entry): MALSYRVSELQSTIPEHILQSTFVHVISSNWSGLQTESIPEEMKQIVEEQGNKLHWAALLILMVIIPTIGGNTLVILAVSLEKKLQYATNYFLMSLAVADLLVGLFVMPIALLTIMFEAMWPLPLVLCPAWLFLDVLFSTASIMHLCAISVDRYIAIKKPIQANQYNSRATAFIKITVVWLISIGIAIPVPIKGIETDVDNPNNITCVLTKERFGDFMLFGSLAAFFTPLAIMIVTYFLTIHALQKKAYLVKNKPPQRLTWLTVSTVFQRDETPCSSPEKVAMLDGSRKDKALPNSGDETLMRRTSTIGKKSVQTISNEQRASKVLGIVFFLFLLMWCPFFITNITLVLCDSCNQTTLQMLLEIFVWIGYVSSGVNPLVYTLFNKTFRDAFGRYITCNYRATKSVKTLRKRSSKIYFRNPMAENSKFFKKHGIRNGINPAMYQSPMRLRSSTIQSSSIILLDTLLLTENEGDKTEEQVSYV
Experiment: BRET Gq dissociation, 5-HT2B
Assay type: cell-based
Set-up: expressed in transfected cells; host or cells: HEK293T, transient
Settings: read-out: 5-HT2B Gq Dissociation (BRET) EMAX ± SEM (%5-HT)
Item-by-item account of Emax
Number in %, nothing else.

Examples with their reported Emax follow.
COc1cc([N+](=O)[O-])c(OC)cc1CCNCc1ccccc1I [25N-NBI (10)] | 21.8
COc1cc(OC)c(OC)cc1CCNCc1ccccc1-c1ccc(O)cc1 | 29.2

Entry COc1cc(OC)c(OC)cc1CCNCc1cccc(I)c1 : reported Emax = ?
20.3

Another compound to check: COc1cc(CCNCc2ccccc2OC)c(OC)cc1I [Compound 25I-NBOMe, reference compound]
78.6

Another compound to check: COc1cc([N+](=O)[O-])c(OC)cc1CCNCc1ccccc1F [25N-NBF (7)]
24.8

###

Target: 5-HT1e (Homo sapiens, UniProt P28566)
Sequence (P28566 whole entry, species assumed): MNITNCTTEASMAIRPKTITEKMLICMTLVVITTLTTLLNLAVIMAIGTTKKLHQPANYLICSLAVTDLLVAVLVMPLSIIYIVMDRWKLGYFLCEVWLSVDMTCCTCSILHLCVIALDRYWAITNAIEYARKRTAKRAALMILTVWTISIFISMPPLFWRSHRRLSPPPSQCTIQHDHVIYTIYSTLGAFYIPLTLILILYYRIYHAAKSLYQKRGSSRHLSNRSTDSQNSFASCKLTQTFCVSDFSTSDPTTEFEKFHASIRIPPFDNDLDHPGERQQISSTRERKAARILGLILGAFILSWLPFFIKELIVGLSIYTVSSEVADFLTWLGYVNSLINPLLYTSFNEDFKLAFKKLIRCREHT
quantity: Ki

Examples with their reported Ki follow.
COc1cc([N+](=O)[O-])c(OC)cc1CCN [2C-N (1), reference compound] | 0.676 µM
COc1cc([N+](=O)[O-])c(OC)cc1CCNCc1cccc(F)c1OC [25N-NB-2-MeO-3-F (19)] | > 10 µM

Entry COc1cc([N+](=O)[O-])c(OC)cc1CCNCc1ccccc1[N+](=O)[O-] [25N-NBNO2 (15)] : reported Ki = ?
> 10 µM

Another compound to check: COc1cc([N+](=O)[O-])c(OC)cc1CCNCc1cccc(O)c1 [25N-NB-3-OH (21)]
> 10 µM

Another compound to check: COc1cc([N+](=O)[O-])c(OC)cc1CCNCc1ccc(C)cc1 [25N-NB-4-Me (23)]
> 10 µM

Another compound to check: COc1cc([N+](=O)[O-])c(OC)cc1CCNCc1ccccc1-c1ccccc1 [25N-NBPh (17)]
> 10 µM

Another compound to check: COc1cc([N+](=O)[O-])c(OC)cc1CCNCc1ccccc1C(F)(F)F [25N-NBCF3 (14)]
> 10 µM

Another compound to check: COc1cc([N+](=O)[O-])c(OC)cc1CCNCc1ccccc1I [25N-NBI (10)]
> 10 µM

###

Target: 5-HT2A (Homo sapiens)
Test: Ca2+ flux assay, 5-HT2A
Assay type: cell-based
Parameters: expressed in transfected cells
Details: 5-HT2A (pEC50 ± SEM), Ca2+ flux
quantity: EC50 (pM)
Number in pM, nothing else.

COc1cc([N+](=O)[O-])c(OC)cc1CCN [2C-N (1), reference compound] | 4900
COc1cc([N+](=O)[O-])c(OC)cc1CCNCc1ccccc1OC [25N-NBOMe (4)] | 316

API: the following record is the query input.
What measured EC50 is associated with COc1cc([N+](=O)[O-])c(OC)cc1CCNCc1ccccc1O [25N-NBOH (3)] on 5-HT2A (Homo sapiens)?
316

###

Target: 5-HT2A (Homo sapiens, UniProt P28223)
Sequence (P28223 whole entry): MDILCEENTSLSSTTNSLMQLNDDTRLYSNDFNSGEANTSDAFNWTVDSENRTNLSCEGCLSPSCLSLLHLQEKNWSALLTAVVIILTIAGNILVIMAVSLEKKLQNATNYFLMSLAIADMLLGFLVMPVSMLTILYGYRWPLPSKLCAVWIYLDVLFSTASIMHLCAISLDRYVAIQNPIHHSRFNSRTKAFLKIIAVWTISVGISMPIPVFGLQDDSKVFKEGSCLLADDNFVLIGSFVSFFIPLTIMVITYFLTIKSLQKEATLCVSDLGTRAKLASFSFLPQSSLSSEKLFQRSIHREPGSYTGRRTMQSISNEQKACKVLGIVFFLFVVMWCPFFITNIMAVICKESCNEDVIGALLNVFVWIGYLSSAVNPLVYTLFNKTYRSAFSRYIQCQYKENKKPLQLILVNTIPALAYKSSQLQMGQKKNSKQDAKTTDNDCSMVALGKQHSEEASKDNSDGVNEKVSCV
Test: cell-based
Design: expressed in transfected cells; host or cells: HEK293T, transient
Conditions: read-out: 5-HT2A Gq Emax (% 5-HT), BRET, mean ± SEM
quantity: Emax (%)
Number in %, nothing else.

COc1cc(OC)c(OC)cc1CCNCc1ccc(-c2ccccc2)s1 | 57.4
COc1cc(Br)ccc1CCNCc1cccc2ccccc12 | 26.3
COc1cc(OC)c(OC)cc1CCNCc1cccc2c1CCCC2 | 43.7
COc1cc(OC)c(OC)cc1CCNCc1ccc(F)c2ccccc12 | 41
COc1cc(OC)c(OC)cc1CCNCc1cccc(I)c1 | 50.1
COc1cc([N+](=O)[O-])c(OC)cc1CCNCc1cccc(C)c1O [25N-NB-2-OH-3-Me (18)] | 50.8

Entry COc1cc(CCNCc2cccc(C)c2O)cc(OC)c1Br : reported Emax = ?
70.4

Another molecule to check: COc1cc(OC)c(OC)cc1CCNCc1cccc(I)c1O
52.8

Another molecule to check: COc1cc(Br)cc(OC)c1CC(C)NCc1cccc2ccccc12 (centres unmarked)
36.6
